system: EKVX; assay: NCI tumour cell line growth inhibition, 48 h
Active and inactive are the calls of the source. No stated cut-off is given here; in the data, active = GI50 up to about 1.1 µM and inactive = higher.
I'd be grateful if you could share measured GI50 for these entries.

CC(C)=CCC[C@]1(C)CC[C@]2(C)C3CCC(=C(C)C)[C@@H](CCCO)[C@]3(C)CC[C@@]2(C)C1 (stereo not given in full)    46.5 µM (inactive)
c1ccc2c[n+](CCCCCCCCCC[n+]3ccc4ccccc4c3)ccc2c1    2.07 µM (inactive)
Nc1ccc(C(c2ccccc2)(c2ccccc2)c2ccccc2)cc1    27.2 µM (inactive)
O=[N+]([O-])c1cccc2c1[nH]c1c(-c3ccccc3)nccc12    3.21 µM (inactive)

Here is the next item to consider.
IN: Please give the documented GI50 of "COC(=O)[C@@H]1Cc2cc(O)c(O)cc2C2(CCN(C)CC2)O1"
OUT: > 10 µM (inactive)

###

tested on: DMS-273; test: NCI tumour cell line growth inhibition, 48 h
Activity calls are given as the source filed them. Cut-off read from the data, not from the text of the source: active = GI50 up to about 1.1 µM and inactive = higher.
Valid outcomes are listed here; reply with one: active, inactive

Solved entries (count: 4):
CCOc1ccccc1NC(=O)CC1C(=O)Nc2ccccc2[S+]1[O-] (stereo not given)    inactive
COC(=O)C(=O)C(/C(=N/N)C(=O)Nc1ccccc1C(N)=O)c1nc2ccc([N+](=O)[O-])cc2nc1O (stereo not given)    inactive
COc1ccc2c(c1)CN1CCc3c(cc(OC)c(OC)c3OC)C1C2 (stereo not given)    inactive
O=C(CC1Sc2ccccc2NC1=O)Nc1cc(Cl)ccc1Cl (stereo not given)    inactive

Next molecule, please.
IN: What outcome does the record of this test show for Cc1nc(N)nc(N)c1-c1ccc(Cl)c(Cl)c1 [METOPRINE] ?
OUT: active

###

tested on: A498; experiment: NCI tumour cell line growth inhibition, 48 h
The source made the active and inactive calls. Rule as the data show it: active = GI50 up to about 1.1 µM and inactive = higher.
Give GI50 for every item shown.

Example compounds with recorded GI50:
C/C(CC(O)(C(F)(F)F)C(F)(F)F)=N\NC(N)=S    > 10 µM (inactive)
O=C1c2ccccc2-c2ccccc2C(=O)C1(Br)Br    16.6 µM (inactive)
CC(=O)N1c2ccccc2C(C)(C)OC1C(Cl)(Cl)Cl (stereo not drawn)    37 µM (inactive)
COc1cc(/C=C/C(=N\NC(=S)NN)c2sc(NNC(C)=O)nc2C)ccc1O    > 100 µM (inactive)
CC(C)OC(=S)Nc1ccc(Cl)c(/C=N/OC(C)(C)C)c1    12.6 µM (inactive)
CCC1C(=O)OCc2c1cc1n(c2=O)Cc2ccccc2-1 (stereo not drawn)    > 100 µM (inactive)

Batch of 6 compounds: report GI50 for each.
1. COC(=O)[C@]12CC=C3O[C@@H]4OC5(CCCCC5)O[C@@H]4C3[C@@H]1C(=O)CCC2=O (stereo partly drawn)
2. O=C(NCc1ccccc1)C1C(=O)C(=O)N(Cc2ccccc2)C1=O (stereo not drawn)
3. COc1ccc(CNc2cc(=O)n(C)c(=O)[nH]2)cc1
4. NNC(=O)Cc1cccnc1
5. O=C(O)CSCC(=O)c1ccccc1
6. N#Cc1cccc(C2SCc3nc4ccccc4n32)c1 (stereo not drawn)

OUT:
1: > 100 µM (inactive); 2: > 100 µM (inactive); 3: > 100 µM (inactive); 4: > 100 µM (inactive); 5: > 100 µM (inactive); 6: 95.9 µM (inactive)

Give one value of GI50 per listed compound.
1. COc1ccc(/C=N/NS(=O)(=O)c2ccccc2)cc1
2. O=C(Cc1nc2ccc(C(=O)c3ccccc3)cc2nc1O)C(=O)Nc1ccccc1[N+](=O)[O-]
3. C[C@]12CC[C@H]3[C@@H](CCC4=CC(=O)CC[C@@H]43)[C@@H]1CC[C@@H]2OC1(O)C(=O)c2ccccc2C1=O

OUT:
1: > 100 µM (inactive); 2: > 100 µM (inactive); 3: 48.5 µM (inactive)

###

tested on: HCC 2998; assay: NCI tumour cell line growth inhibition, 48 h
Active and inactive are the calls of the source. Rule as the data show it: active = GI50 up to about 1.1 µM and inactive = higher.
endpoint_label: GI50

COC1CCC(O)C(/C=C/[N+](=O)[O-])C1 (stereo unspecified)    1.7 µM (inactive)
O=C(c1cccc(C(=O)c2ccc3c4c(cccc24)C(=O)N(c2ccccc2)C3=O)c1)c1ccc2c3c(cccc13)C(=O)N(c1ccccc1)C2=O    > 100 µM (inactive)
[O-][S+]1C(=c2ccc(=C3Sc4ccccc4S3)cc2)Sc2ccccc21 (stereo unspecified)    16 µM (inactive)
O=C1CC(O)c2c1csc2Br (stereo unspecified)    19.2 µM (inactive)
CC(=O)OCC1OC(SC2=N/C(=C\c3ccc(Br)s3)C(=O)N2CN2CCOCC2)C(OC(C)=O)C(OC(C)=O)C1OC(C)=O (stereo unspecified)    19.8 µM (inactive)
COC(=O)/C=C/C1(O)C=CC(=O)C=C1    7.52 µM (inactive)

Parameters: items (list). Returns: GI50 for each item.
1. Clc1ccccc1-c1nc2cc(C34CC5CC(CC(C5)C3)C4)ccc2[nH]1
2. NNC(=O)Cc1cccnc1
3. CSc1cc(Cl)c(C)cc1S(=O)(=O)NC(=O)NNc1cccc(C(F)(F)F)n1
4. Nc1ncnc2c1ncn2CCCCC(=O)O
5. CCCCCCCCCCCCCCCCNc1ccn(C2CC(O)C(COC(c3ccccc3)(c3ccccc3)c3ccc(OC)cc3)O2)c(=O)n1 (stereo unspecified)
6. CC(=O)C(=Cc1ccc(C=C(C(C)=O)C(C)=O)cc1)C(C)=O

OUT:
1. 49.3 µM (inactive)
2. > 100 µM (inactive)
3. > 100 µM (inactive)
4. > 100 µM (inactive)
5. 83.6 µM (inactive)
6. 4.81 µM (inactive)

###

system: MDA-N; test: NCI tumour cell line growth inhibition, 48 h
Active and inactive are the calls of the source. Rule as the data show it: active = GI50 up to about 1.1 µM and inactive = higher.
Please go through the items and note down their GI50.

For every record below, what is its GI50?
1. O=C(O)c1cc2ccccc2c2c1C(=O)c1ccccc1-2
2. COc1ccc(C2SCC(=O)N2NC(=O)C(C)Oc2ccc(Cl)cc2Cl)cc1 (stereo not given)
3. O=C1c2c(Br)sc(Br)c2[C@H]2OC(=S)N[C@@H]12
4. N#Cc1c(-c2ccc(Cl)cc2)cc(-c2ccc(Nc3ccnc4cc(C(F)(F)F)ccc34)cc2)nc1N
5. COC(=O)[C@@H]1Cc2cc(O)c(O)cc2C2(CCN(C)CC2)O1

OUT:
1. > 100 µM (inactive)
2. 83 µM (inactive)
3. 5.04 µM (inactive)
4. 32.8 µM (inactive)
5. > 10 µM (inactive)

###

test system: COLO 205; experiment: NCI tumour cell line growth inhibition, 48 h
Active and inactive are the calls of the source. No stated cut-off is given here; in the data, active = GI50 up to about 1.1 µM and inactive = higher.
// classify into t (active), f (inactive)

Completed entries (count: 3):
COc1ccc(NC2Oc3cc4c(cc3C(c3cc(OC)c(OC)c(OC)c3)C2C)OCO4)cc1 (centres undefined)    t
O=C(NCc1ccccc1)C1C(=O)C(=O)N(Cc2ccccc2)C1=O (centres undefined)    f
c1ccc2c[n+](CCCCCCCCCC[n+]3ccc4ccccc4c3)ccc2c1    f

IN: Could you check what this test reported for "Cc1cc(NS(=O)(=O)c2ccc(NC(NC(=O)C(C(F)(F)F)C(F)(F)F)(C(F)(F)F)C(F)(F)F)cc2)no1" ?
OUT: f

IN: Tell me the recorded outcome of this test for "Fc1ccc(C(OCCN2CCN(CCCCl)CC2)c2ccc(F)cc2)cc1" .
OUT: f

IN: Outcome? CC(C)=CCC[C@]1(C)CC[C@]2(C)C3CCC(=C(C)C)[C@@H](CCCO)[C@]3(C)CC[C@@]2(C)C1 (some centres undefined)
OUT: f

###

Please provide measured GI50 for the entries that follow.
system: TK-10; experiment: NCI tumour cell line growth inhibition, 48 h
Activity calls are given as the source filed them. No stated cut-off is given here; in the data, active = GI50 up to about 1.1 µM and inactive = higher. Peptide text beside a SMILES is read from it. * marks the point of attachment. X27 = Clc1c(Cl)c(Cl)c(O*)c(Cl)c1Cl; Boc = CC(C)(C)OC(=O)*; OBn = c1ccc(CO*)cc1; Bn = c1ccc(C*)cc1

Solved entries:
O=C(NCc1ccccc1)C1C(=O)C(=O)N(Cc2ccccc2)C1=O (centres undefined)    > 100 µM (inactive)
[O-][S+]1C(=c2ccc(=C3Sc4ccccc4S3)cc2)Sc2ccccc21 (centres undefined)    > 100 µM (inactive)
CC[C@@H]1NC(C(=O)OC)Cc2c1[nH]c1ccccc21 (some centres undefined)    > 100 µM (inactive)
c1cc(-c2cn3c(n2)SCC3)ccn1    > 100 µM (inactive)
O=C(NCc1ccccc1)c1cc2ccc(O)c(O)c2cn1    > 100 µM (inactive)

Give GI50 for each listed item.
1. C=CCN1C(=O)/C(=C/c2ccc(OC)cc2)N=C1SC/C=C/C
2. O=C(O)c1ccccc1Sc1ccc(C=C2NC(=S)N(c3ccccc3)C2=O)s1
3. CC(C)CC(NC(=O)C(CCC(=O)OCc1ccccc1)NC(=O)OC(C)(C)C)C(=O)NC(COCc1ccccc1)C(=O)NC(Cc1ccccc1)C(=O)Oc1c(Cl)c(Cl)c(Cl)c(Cl)c1Cl (centres undefined) (Boc-E(OBn)LS(Bn)F-X27; configuration not given here)
4. O=c1cc(CBr)c2ccc(O)cc2o1

OUT:
1. > 100 µM (inactive)
2. 76.2 µM (inactive)
3. 30.3 µM (inactive)
4. 88.5 µM (inactive)
